Cited source: ChEMBL document CHEMBL3232754

assay: Growth inhibition of human HLF cells by MTT assay
property name: GI50 (µM)
Lab book: enter the figure in µM, no units written.

The compound identified as CC1=C(C)C(=O)C(CCCCCCCCCCN2CCCN(CCCCCCCCCCC3=C(C)C(=O)C(C)=C(C)C3=O)CC2)=C(C)C1=O registered its GI50 at 2.55

The recorded GI50 for entry CC1=C(CCCCCCCCCCN2CCN(CCCCCCCCCCC3=C(C)C(=O)c4ccccc4C3=O)CC2)C(=O)c2ccccc2C1=O equals 15.7

Please fill in: GI50 reported for CC1=C(CCCCCCCCCCN2CCCN(CCCCCCCCCCC3=C(C)C(=O)c4ccccc4C3=O)CC2)C(=O)c2ccccc2C1=O = 2.68

###

Could you please report measured GI50 at 72 h for the items listed next?
assay: Growth inhibition of human 16HBE cells after 72 hrs by MTT assay; format: cell-based, 16HBE14o-
Kindly answer with a numeric value in µM, unit omitted.

Please fill in: GI50 at 72 h reported for CC1=C(C)C(=O)C(CCCCCCCCCCN2CCN(CCCCCCCCCCC3=C(C)C(=O)C(C)=C(C)C3=O)CC2)=C(C)C1=O = 3.85

Reported GI50 at 72 h for CC1=C(CCCCCCCCCCN2CCN(CCCCCCCCCCC3=C(C)C(=O)c4ccccc4C3=O)CC2)C(=O)c2ccccc2C1=O was 3.52

GI50 at 72 h reported for this compound CC1=C(CCCCCCCCCCN2CCCN(C(=O)c3ccc(-c4ccccc4)cc3)CC2)C(=O)c2ccccc2C1=O : 2.85

Recorded GI50 at 72 h (compound CCCCCCCCCC[C@H](O)COCCOC[C@@H](O)CCCCCCCCCCCCC1=C[C@H](C)OC1=O ): 3.34

get_value(item= COC1=C(C)C(=O)C(CCCCCCCCCCN2CCN(C(=O)c3ccc(-c4ccccc4)cc3)CC2)=C(C)C1=O , readout=GI50 at 72 h) returns 3.19

Query COC1=C(OC)C(=O)C(CCCCCCCCCCN2CCN(CCCCCCCCCCC3=C(C)C(=O)C(OC)=C(OC)C3=O)CC2)=C(C)C1=O yields GI50 at 72 h of 2.63

###

Exercise: state measured GI50 for each of the compounds provided.
tested on: HCT-116; test: Growth inhibition of human HCT116 cells after 72 hrs by MTT assay; format: functional; details: HCT-116, 72 h
Return type: number; implicit unit nM.

// GI50 (HCT-116) for CC1=C(CCCCCCCCCCN2CCCN(CCCCCCCCCCC3=C(C)C(=O)c4ccccc4C3=O)CC2)C(=O)c2ccccc2C1=O = 90

# GI50 measured on HCT-116 for item COC1=C(OC)C(=O)C(CCCCCCCCCCN2CCCN(C(=O)c3ccc(-c4ccccc4)cc3)CC2)=C(C)C1=O = 1360

Kindly note: HCT-116, CC1=C(C)C(=O)C(CCCCCCCCCCN2CCN(CCCCCCCCCCC3=C(C)C(=O)C(C)=C(C)C3=O)CC2)=C(C)C1=O , GI50 value reported: 70

For CC1=C(CCCCCCCCCCN2CCCN(C(=O)c3ccc(-c4ccccc4)cc3)CC2)C(=O)c2ccccc2C1=O on HCT-116, measured GI50 was 970

GI50 on HCT-116 for COC1=C(C)C(=O)C(CCCCCCCCCCN2CCCN(C(=O)c3ccc(-c4ccccc4)cc3)CC2)=C(C)C1=O is 890

The observed GI50 for COC1=C(C)C(=O)C(CCCCCCCCCCN2CCN(CCCCCCCCCCC3=C(C)C(=O)C(OC)=C(C)C3=O)CC2)=C(C)C1=O when tested with HCT-116 stands at 180

// returns GI50 for COC1=C(C)C(=O)C(CCCCCCCCCCN2CCCN(CCCCCCCCCCC3=C(C)C(=O)C(OC)=C(C)C3=O)CC2)=C(C)C1=O with HCT-116; value = 40

###

test: Growth inhibition of human 16HBE cells by MTT assay
property name: log10 of GI50 (log10 of the value in µM)
Log scale reminder: GI50 in µM, then log10 taken.

Short answer for CCCCCCCCCC[C@H](O)COCCOC[C@@H](O)CCCCCCCCCCCCC1=C[C@H](C)OC1=O : log10 of GI50 was 0.68

Input CC1=C(C)C(=O)C(CCCCCCCCCCN2CCN(CCCCCCCCCCC3=C(C)C(=O)C(C)=C(C)C3=O)CC2)=C(C)C1=O . Output log10 of GI50: 0.18

log10 of GI50 recorded for this molecule, COC1=C(C)C(=O)C(CCCCCCCCCCN2CCN(CCCCCCCCCCC3=C(C)C(=O)C(OC)=C(C)C3=O)CC2)=C(C)C1=O , is 0.92

Kindly note the recorded log10 of GI50 for CC1=C(CCCCCCCCCCN2CCCN(CCCCCCCCCCC3=C(C)C(=O)c4ccccc4C3=O)CC2)C(=O)c2ccccc2C1=O , which is 0.06

Per the record, COC1=C(OC)C(=O)C(CCCCCCCCCCN2CCCN(C(=O)c3ccc(-c4ccccc4)cc3)CC2)=C(C)C1=O has log10 of GI50 of 0.90

log10 of GI50 for COc1cccc2c1C(=O)c1c(O)c3c(c(O)c1C2=O)C[C@@](O)(C(=O)CO)C[C@@H]3O[C@H]1C[C@H](N)[C@H](O)[C@H](C)O1 is -0.74

Record COC1=C(OC)C(=O)C(CCCCCCCCCCN2CCCN(CCCCCCCCCCC3=C(C)C(=O)C(OC)=C(OC)C3=O)CC2)=C(C)C1=O , field log10 of GI50: 1.15

Quick note, log10 of GI50 for CC1=C(C)C(=O)C(CCCCCCCCCCN2CCCN(CCCCCCCCCCC3=C(C)C(=O)C(C)=C(C)C3=O)CC2)=C(C)C1=O landed at -0.04

###

test: Growth inhibition of human HLF cells by MTT assay
Please provide measured GI50 for the entries that follow.

The recorded GI50 for entry CC1=C(C)C(=O)C(CCCCCCCCCCN2CCCN(C(=O)c3ccc(-c4ccccc4)cc3)CC2)=C(C)C1=O equals > 20 µM

Record COC1=C(OC)C(=O)C(CCCCCCCCCCN2CCCN(CCCCCCCCCCC3=C(C)C(=O)C(OC)=C(OC)C3=O)CC2)=C(C)C1=O , field GI50: > 20 µM

The recorded GI50 for entry COC1=C(C)C(=O)C(CCCCCCCCCCN2CCN(C(=O)c3ccc(-c4ccccc4)cc3)CC2)=C(C)C1=O equals > 20 µM
